Measured values drawn from the supplement of paper PMC9732359 for this set.

Assay: protein stability index of a GFP-peptide fusion (yeast GPS) (PSI 1-4); higher = more stable; sorted into four equal gates, so the index is relative within each strain
Settings: doa10∆
Parameter protein stability index: see the listing below.

>  <sequenceEntry>
STKFDYPPMPFDGFLFG [FAS1]

>  <protein stability index>
2.56

$$$$
>  <sequenceEntry>
RNVNWIERLTKRQFNNS [ITC1]

>  <protein stability index>
3.05

$$$$
>  <sequenceEntry>
YGNDEEVLFYEDNYNPK [RPN4]

>  <protein stability index>
3.11

$$$$
>  <sequenceEntry>
FNYGKLPLPPSVEWMKV [SIN4]

>  <protein stability index>
2.6

$$$$
>  <sequenceEntry>
PAFSFGAKPEEKKDDNS [YJL041W/NSP1]

>  <protein stability index>
3.27

$$$$
>  <sequenceEntry>
RGTLTKNLKHIDVTFTK [RPL9A]

>  <protein stability index>
3.32

$$$$
>  <sequenceEntry>
RKSKLNLDNLQKVSQLE [POP4]

>  <protein stability index>
2.89

$$$$
>  <sequenceEntry>
DIKAPSTFENRNVGKTL [RPS1A]

>  <protein stability index>
2.95

$$$$
>  <sequenceEntry>
PFNKPNIETGENHNGQS [SWI3]

>  <protein stability index>
3.3

$$$$
>  <sequenceEntry>
IVQELLDKNLIKLVKQN [RPC34]

>  <protein stability index>
1.97

$$$$
>  <sequenceEntry>
SLKNDLPQFRSSIQESL [ECM29]

>  <protein stability index>
2.9

$$$$
>  <sequenceEntry>
EGLELLGWIHTQTEELK [PRP8]

>  <protein stability index>
2.94

$$$$
>  <sequenceEntry>
RKTWKRQNTLSLWRYRK [RPL15A]

>  <protein stability index>
3.45

$$$$
>  <sequenceEntry>
VKKGPVRLPTKVLKIST [RPS20]

>  <protein stability index>
2.22

$$$$

---

Assay: protein stability index of a GFP-peptide fusion (yeast GPS) (PSI 1-4); higher = more stable; sorted into four equal gates, so the index is relative within each strain
Conditions: pdr5∆
The entries below are paired with their reported protein stability index.
readout: protein stability index

>  <sequenceEntry>
NVNMTVNTMGTGGQTID [MED6]

>  <resultNumber>
3.44

$$$$
>  <sequenceEntry>
GMYALRERRIHVTQEDF [RPT6]

>  <resultNumber>
1.94

$$$$
>  <sequenceEntry>
VPNSSDQAELPNNASSH [SNF2]

>  <resultNumber>
2.85

$$$$
>  <sequenceEntry>
NIMVTIDGCVKIGDLGL [SSN3]

>  <resultNumber>
3.12

$$$$
>  <sequenceEntry>
VLNMLYWVPDWDGVIPT [RPO21]

>  <resultNumber>
2.63

$$$$
>  <sequenceEntry>
TKEVESNIITKSLVQYI [DIS3]

>  <resultNumber>
3.05

$$$$
>  <sequenceEntry>
HVKQCQETCDKLRARLV [SMC2]

>  <resultNumber>
2.74

$$$$
>  <sequenceEntry>
HDEKTLAPSKHQPITSE [SIR4]

>  <resultNumber>
2.27

$$$$
>  <sequenceEntry>
PLFFVDLKLLFNTEAEQ [RGR1]

>  <resultNumber>
2.83

$$$$
>  <sequenceEntry>
LRFPEHTSSGSVSFKVF [BRR2]

>  <resultNumber>
1.51

$$$$
>  <sequenceEntry>
SKSEFAHRIMLTNILRM [FAS2]

>  <resultNumber>
1.67

$$$$
>  <sequenceEntry>
DPSLNLKLLAKSHVLLA [BRR2]

>  <resultNumber>
2.44

$$$$
>  <sequenceEntry>
SKIFNESFPDDIPLAKA [CDC53]

>  <resultNumber>
2.89

$$$$
>  <sequenceEntry>
NLLKFITSNHKSSVPGS [RPN3]

>  <resultNumber>
2.77

$$$$
>  <sequenceEntry>
MIVPVRCFSCGKVVGDK [RPB10]

>  <resultNumber>
2.59

$$$$
